target: human FLAG-SAMTOR (SAMTOR, C7orf60; wild-type, FLAG-tagged, expressed in HEK-293F cells) (Homo sapiens); construct: anti-FLAG purification and size-exclusion chromatography; assay: Radiolabelled SAM binding assay: competition of unlabeled SAH with [3H]SAM for purified FLAG-SAMTOR (FIG. 3B); settings: 5 μM [3H]SAM competed with unlabeled SAH; 5 μg purified wild-type FLAG-SAMTOR on anti-FLAG beads, 1 h on ice, pH 7.4; Ki=IC50/(1+([3H]SAM)/Kd)
Sequence (Q1RMZ1 whole entry): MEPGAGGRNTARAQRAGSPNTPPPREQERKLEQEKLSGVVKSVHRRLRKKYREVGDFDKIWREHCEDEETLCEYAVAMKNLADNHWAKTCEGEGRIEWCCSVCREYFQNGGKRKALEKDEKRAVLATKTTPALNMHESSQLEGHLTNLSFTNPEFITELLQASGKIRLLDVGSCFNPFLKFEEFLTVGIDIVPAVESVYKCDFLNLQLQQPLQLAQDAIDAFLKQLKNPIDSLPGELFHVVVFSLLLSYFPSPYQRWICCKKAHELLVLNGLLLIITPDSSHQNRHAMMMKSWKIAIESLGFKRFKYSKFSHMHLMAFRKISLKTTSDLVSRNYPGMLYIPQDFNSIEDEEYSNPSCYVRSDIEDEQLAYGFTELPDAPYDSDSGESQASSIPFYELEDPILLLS
pKi: −log10 of the molar value.
observable: pKi

*Q* Look up pKi: Nc1ncnc2c1ncn2[C@@H]1O[C@H](CSCC[C@H](N)C(=O)O)[C@@H](O)[C@H]1O
*A* ~5.34
